# ASSAY SYSTEM: Purified ERAP1(37-941)-10His (ERAP1) (Homo sapiens, UniProt Q9NZ08)
# Construct: Purified ERAP1(37-941)-10His (ERAP1); 10His (C)
# Sequence (Q9NZ08 37-941): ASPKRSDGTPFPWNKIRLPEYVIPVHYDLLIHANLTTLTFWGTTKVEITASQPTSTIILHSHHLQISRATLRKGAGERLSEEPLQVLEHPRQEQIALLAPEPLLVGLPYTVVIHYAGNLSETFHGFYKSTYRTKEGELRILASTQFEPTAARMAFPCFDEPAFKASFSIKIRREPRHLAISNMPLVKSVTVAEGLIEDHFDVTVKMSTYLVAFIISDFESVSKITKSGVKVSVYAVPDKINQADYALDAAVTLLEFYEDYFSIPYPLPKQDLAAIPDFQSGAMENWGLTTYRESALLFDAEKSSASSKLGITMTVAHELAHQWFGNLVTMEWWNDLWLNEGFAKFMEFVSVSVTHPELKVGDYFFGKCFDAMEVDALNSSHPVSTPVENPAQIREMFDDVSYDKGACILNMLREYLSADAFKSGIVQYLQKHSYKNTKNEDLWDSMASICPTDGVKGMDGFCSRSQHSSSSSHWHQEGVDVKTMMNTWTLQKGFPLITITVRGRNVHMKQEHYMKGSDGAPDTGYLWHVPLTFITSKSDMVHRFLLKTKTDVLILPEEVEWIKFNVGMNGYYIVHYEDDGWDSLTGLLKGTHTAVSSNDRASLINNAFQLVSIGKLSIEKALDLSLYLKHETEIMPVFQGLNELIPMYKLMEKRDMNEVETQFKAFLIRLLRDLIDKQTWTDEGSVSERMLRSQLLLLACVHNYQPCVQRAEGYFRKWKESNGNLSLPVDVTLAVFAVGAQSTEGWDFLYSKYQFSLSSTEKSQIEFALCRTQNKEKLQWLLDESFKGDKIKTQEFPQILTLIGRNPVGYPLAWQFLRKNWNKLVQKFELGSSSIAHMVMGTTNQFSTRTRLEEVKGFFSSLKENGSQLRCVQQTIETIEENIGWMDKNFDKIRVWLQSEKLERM
# EXPERIMENTAL DETAILS: ERAP1 mediated hydrolysis of an amide substrate measured in a biochemical system (10-mer decapeptide substrate)
# CONDITION DETAILS: 10-mer substrate, 23° C. for 1 h, excitation 279 nm and emission 355 nm; read-out: IC50 vs Decapeptide WRVYEKC(Dnp)ALK-acid (where Dnp is Dinitrophenyl maleimide) (10-mer)
# Description: Biological Assay 1: ERAP1 Mediated Hydrolysis of an Amide Substrate Measured in a Biochemical System 1× Assay buffer (AB): 25 mM Bis-tris propane, 0.05% w/v Hydroxypropylmethylcellulose pH 7.75 made with Optima grade water […] 12.5 μL ERAP1 enzyme in 1×AB was combined with 250 nL test compound in DMSO. […] For detection, plates were read at excitation 365 nm and emission 442 nm (L-AMC) or excitation 279 nm and emission 355 nm (10-mer). Compound IC50 was determined using a 4 parameter equation.
METRIC NAME: IC50

Cc1sncc1-c1ccc(-c2ccc(F)s2)c(NS(=O)(=O)c2cc(C(=O)O)ccc2C2CC2)c1: < 500 nM
O=C(O)c1ccc(C2CC2)c(S(=O)(=O)Nc2cc(-n3cnnn3)ccc2-n2cccc2)c1: < 500 nM
COc1ccc(C(=O)O)cc1S(=O)(=O)Nc1cc(C(F)(F)F)ccc1-c1ccc(C)cc1: > 5000 nM
COc1ccc(C(=O)O)cc1S(=O)(=O)Nc1cc(C(F)(F)F)ccc1-n1cccn1: < 5000 nM

Dear colleague, could you please provide IC50 for the molecules listed below?
1. N#Cc1ccc(-c2nccs2)c(NS(=O)(=O)c2cc(C(=O)O)ccc2C2CC2)c1
2. COc1ccc(C(=O)O)cc1S(=O)(=O)Nc1cc(C(F)(F)F)ccc1-c1ccc(C)s1
3. N#Cc1ccc(-c2ncccc2F)c(NS(=O)(=O)c2cc(C(=O)O)ccc2C2CC2)c1
4. Cc1sncc1-c1ccc(-c2ccccn2)c(NS(=O)(=O)c2cc(C(=O)O)ccc2C2CC2)c1

Solution:
< 500 nM
< 500 nM
< 500 nM
< 500 nM

====

Assay read-out IC50; system under study: Purified ERAP1(37-941)-10His (ERAP1) (Homo sapiens, UniProt Q9NZ08).

Cn1ncnc1-c1cc(NS(=O)(=O)c2cc(C(=O)O)ccc2C2CC2)c(-n2cccc2)cc1Cl: < 0.5 µM

# batch: return IC50 for each of the 2 molecules below
1. COc1ccc(C(=O)O)cc1S(=O)(=O)Nc1cc(C(F)(F)F)ccc1-c1ccc(C#N)cc1
2. COc1ccc(C(=O)O)cc1S(=O)(=O)Nc1cc(S(C)(=O)=O)ccc1-c1ccc(Cl)s1

Solution:
< 5 µM
< 0.5 µM

Each molecule below has a reported value. Please supply its IC50.
1. N#Cc1cc(NS(=O)(=O)c2cc(C(=O)O)ccc2C2CC2)c(-c2ncccn2)cc1Cl
2. COc1ccccc1-c1ccc(C(F)(F)F)cc1NS(=O)(=O)c1cc(C(=O)O)ccc1OC
3. Cn1nccc1-c1cc(NS(=O)(=O)c2cc(C(=O)O)ccc2C2CC2)c(-n2cccc2)cc1Cl
4. COc1ccc(C(=O)O)cc1S(=O)(=O)Nc1cc(C(F)(F)F)ccc1-c1ccccc1C(C)C
5. CS(=O)(=O)c1cc(NS(=O)(=O)c2cc(C(=O)O)ccc2C2CC2)c(-c2ccccn2)cc1F

Solution:
1: < 0.5 µM; 2: < 5 µM; 3: < 0.5 µM; 4: < 5 µM; 5: < 0.5 µM

====

# ASSAY SYSTEM: Purified ERAP1(37-941)-10His (ERAP1) (Homo sapiens)
pIC50: −log10 of the molar value.
Provide the reported pIC50 of each item.

The following compounds have reported results that may help.
CCc1ccc(C(=O)O)cc1S(=O)(=O)Nc1cc(C(F)(F)F)ccc1-n1cncn1 [Example 29]: > 5.30
Cc1oncc1-c1ccc(-c2cccnc2)c(NS(=O)(=O)c2cc(C(=O)O)ccc2C2CC2)c1 [Example 167]: > 6.30
O=C(O)c1ccc(C2CC2)c(S(=O)(=O)Nc2cc(-c3ccns3)ccc2-c2ccc(Cl)s2)c1 [Example 141]: > 6.30

Hey, can you go through the list below and give me pIC50 for every item?
1. COc1ccc(C(=O)O)cc1S(=O)(=O)Nc1cc(C#N)ccc1-c1ccc(C)s1 [Example 81]
2. COc1ccc(C(=O)O)cc1S(=O)(=O)Nc1cc(C(F)(F)F)ccc1-c1ccccn1 [Example 26]
3. N#Cc1cc(NS(=O)(=O)c2cc(C(=O)O)ccc2C2CC2)c(-c2cccc(F)c2)cc1Cl [Example 133]
4. O=C(O)c1ccc(C2CC2)c(S(=O)(=O)Nc2cc(C(F)(F)F)ccc2-c2ccsn2)c1 [Example 151]
5. COc1ccc(C(=O)O)cc1S(=O)(=O)Nc1cc(C(F)(F)F)ccc1-n1cncn1 [Example 28]

Solution:
> 6.30
> 6.30
> 6.30
> 6.30
< 5.30

====

Recorded IC50 values (Purified ERAP1(37-941)-10His (ERAP1) (Homo sapiens)) are given below.

I need IC50 for every entry listed below, if you could help.
1. CCc1ccc(C(=O)O)cc1S(=O)(=O)Nc1cc(S(C)(=O)=O)ccc1-c1cccnc1 [Example 54]
2. COc1ccc(C(=O)O)cc1S(=O)(=O)Nc1cc(S(C)(=O)=O)ccc1-c1ccc(F)s1 [Example 105]
3. CS(=O)(=O)c1ccc(-c2ccc(F)s2)c(NS(=O)(=O)c2cc(C(=O)O)ccc2C2CC2)c1 [Example 116]
4. Cn1nccc1-c1cc(NS(=O)(=O)c2cc(C(=O)O)ccc2C2CC2)c(-n2cccc2)cc1F [Example 199]
5. O=C(O)c1ccc(C2CC2)c(S(=O)(=O)Nc2cc(C(F)(F)F)ccc2-c2cccc(F)c2)c1 [Example 92]
6. Cc1ccc(-c2ccc(-c3cnsc3C)cc2NS(=O)(=O)c2cc(C(=O)O)ccc2C2CC2)s1 [Example 140]
7. Cc1cc(C#N)cc(NS(=O)(=O)c2cc(C(=O)O)ccc2C2CC2)c1-c1ccccn1 [Example 176]

Solution:
1: < 500 nM; 2: < 500 nM; 3: < 500 nM; 4: < 500 nM; 5: < 500 nM; 6: < 500 nM; 7: < 500 nM

For the 4 compounds below, give their IC50 values.
1. CCc1ccc(C(=O)O)cc1S(=O)(=O)Nc1cc(C#N)ccc1-c1cccs1 [Example 43]
2. COc1ccc(C(=O)O)cc1S(=O)(=O)Nc1cc(C#N)ccc1-c1cccs1 [Example 62]
3. CCc1ccc(C(=O)O)cc1S(=O)(=O)Nc1cc(C(F)(F)F)ccc1-c1ccccc1 [Example 19]
4. N#Cc1cc(NS(=O)(=O)c2cc(C(=O)O)ccc2C2CC2)c(-c2ccc(Cl)s2)cc1Cl [Example 134]

Solution:
["< 500 nM", "< 500 nM", "< 500 nM", "< 500 nM"]

====

Lab note: IC50 readings collected with Purified ERAP1(37-941)-10His (ERAP1) (Homo sapiens) for the following compounds.

Cc1sncc1-c1ccc(-c2ccccc2)c(NS(=O)(=O)c2cc(C(=O)O)ccc2C2CC2)c1: < 500 nM
CCc1ccc(C(=O)O)cc1S(=O)(=O)Nc1cc(C#N)ccc1-c1ccc(Cl)s1: < 500 nM

Each compound below has a reported value. Please supply its IC50.
1. COc1ccc(C(=O)O)cc1S(=O)(=O)Nc1cc(C(F)(F)F)ccc1-c1cc(C)nn1C
2. CCc1ccc(C(=O)O)cc1S(=O)(=O)Nc1cc(C#N)ccc1-c1ccc(C#N)s1
3. COc1ccc(C(=O)O)cc1S(=O)(=O)Nc1cc(C(F)(F)F)c(F)cc1-n1cccc1

Solution:
1. < 5000 nM
2. < 500 nM
3. < 500 nM

Attribution: patent US12023333B2
